Molecular target: Aromatase (Homo sapiens)
Sequence (P11511 whole entry): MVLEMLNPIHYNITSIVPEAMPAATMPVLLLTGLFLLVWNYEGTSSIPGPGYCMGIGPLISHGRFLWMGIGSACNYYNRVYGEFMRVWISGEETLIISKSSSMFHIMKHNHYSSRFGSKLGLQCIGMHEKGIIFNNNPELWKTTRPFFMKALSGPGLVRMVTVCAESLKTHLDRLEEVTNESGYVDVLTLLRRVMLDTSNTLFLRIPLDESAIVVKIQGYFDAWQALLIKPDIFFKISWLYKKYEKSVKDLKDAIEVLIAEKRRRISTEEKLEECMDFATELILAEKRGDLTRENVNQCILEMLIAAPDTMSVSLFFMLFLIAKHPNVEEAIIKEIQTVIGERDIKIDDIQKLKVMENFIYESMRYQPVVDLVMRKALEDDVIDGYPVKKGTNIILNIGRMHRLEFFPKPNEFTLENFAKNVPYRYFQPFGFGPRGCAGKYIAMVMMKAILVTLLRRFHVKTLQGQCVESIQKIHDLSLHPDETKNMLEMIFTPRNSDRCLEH
Assay: Inhibition of recombinant human aromatase at 200 uM preincubated for 10 mins followed by substrate and beta-NADP+ addition and measured for 60 mins by fluorescence method
Conditions: 1 h
measured.attribute: inhibition at 200 µM (%)

Below are worked cases with known answers.
O=C1c2c(O)ccc(O)c2C(=O)c2c(NCCCO)ccc(NCCCO)c21    92
OCC(O)C(O)C(O)C(c1ccc(Cl)cc1)c1ccc(Cl)cc1 (stereo unspecified)    10
CC[C@H](Nc1cc(C)nc(Nc2cccc(O)c2)n1)c1nccs1    88
N[C@@H]1CCN(Cc2cc(O)c3cc(F)ccc3n2)C[C@H]1O    62
Cc1ccc(C(c2ccc(C)c(C)c2)C(O)C(O)C(O)C(O)CO)cc1C (stereo unspecified)    8
CC(C)(C)NCC(O)COc1cccc2c1C[C@H](O)[C@H](O)C2 (stereo partly specified) [NADOLOL]    0
O=C(NCc1cc[nH]c(=O)c1)c1ccc(COCC(F)(F)F)cc1    3
O=c1cc(CO)oc([C@H](Nc2ccccn2)c2ccccc2O)c1O    3
O=C(CCc1ccc(O)c(Cl)c1)NCc1csc(=O)[nH]1    69

A = COC(=O)c1ccc(NCC2=CC(=O)c3ccccc3C2=O)cc1
B = O=C(C=Cc1ccc(O)c(O)c1)NCC(=O)NC(Cc1ccccc1)C(=O)O (stereo unspecified)
## Input // pick larger inhibition at 200 µM from pair: A vs B Returns: label corresponding to the selected item.
## Output A
(A: 97%, B: 13%)

====

Test system: MDA-MB-231
Assay: Growth inhibition of human MDA-MB-231 cells incubated for 72 hrs by cell counting based method
Assay type: functional
Conditions: MDA-MB-231, 72 h
measured.attribute: GI50 (µM)

P = CC[C@H](Nc1cc(C)nc(Nc2cccc(O)c2)n1)c1nccs1
Q = COC(=O)c1ccc(NCC2=CC(=O)c3ccccc3C2=O)cc1
R = O=C1c2c(O)ccc(O)c2C(=O)c2c(NCCCO)ccc(NCCCO)c21
## Input Order the entries above from lowest to highest GI50. Response format: the labels, sorted as the prompt asks.
## Output R, Q, P
(R: 6.8 µM, Q: 16.2 µM, P: 58 µM)

====

Molecular target: Aromatase (Homo sapiens)
Test: Inhibition of recombinant human aromatase at 200 uM preincubated for 10 mins followed by substrate and beta-NADP+ addition and measured for 60 mins by fluorescence method
Conditions: 1 h
measured.attribute: inhibition at 200 µM (%)

These solved cases illustrate the format of a correct answer.
NC(CCC(=O)O)C(=O)NC(Cc1c[nH]c2ccccc12)C(=O)O (stereo not drawn)    3
CC/C(=C(\c1ccc(O)cc1)c1ccc(OCCNC)cc1)c1ccccc1 [ENDOXIFEN]    58
Nc1nc(O)cc(NC(=S)Nc2ccc(C(=O)O)cc2)n1    8
C[C@@H](NC(=O)c1ccc(=O)[nH]c1)c1ccc2[nH]c(=O)[nH]c2c1    41
CCSC(C(O)C(O)C(O)C(O)CO)n1cnc2c(S)ncnc21 (stereo not drawn)    12
O=C1c2c(O)cc(O)cc2O[C@H](c2ccc(O)c(O)c2)[C@H]1O [(+)-TAXIFOLIN]    56

a = CC[C@H](CO)N(Cc1ccccn1)C(=O)c1ccc(=O)[nH]c1
b = COc1ccc([C@@H](O)CNC(=O)N[C@@H]2CCCCNC2=O)cc1
## Input Field: lower inhibition at 200 µM | Options: a / b The response must carry the label of the picked entry.
## Output a
